tested on: CEM cells HIV-1 protection, formazan growth assay; experiment: NCI AIDS Antiviral Assay; conditions: measured here: growth of uninfected CEM cells
pIC50: −log10 of the molar value.
Quick reference: pIC50 of the listed items.
MEASURE_NAME: pIC50

1) COC(=O)c1cc(C(=CCCc2ccccc2)c2cc(Br)c(OC)c(C(=O)OC)c2)cc(Br)c1OC | 4.95
2) C/C(=N\N=C(N)N)C(CN(C)C)C(c1ccccc1)c1c(O)c2ccccc2oc1=O (stereo not drawn) | 4.76
3) CCOC(=O)/C(C#N)=C\C=C1/C=CNC2=NCCN21 | 4.61
4) Cc1nnc(N)nc1/C=C\c1ccc(N(C)C)cc1 | 5.46
5) CCOC(=O)C1C2CCC(C2=C(c2ccccc2)c2ccccc2)C1C(=O)O (stereo not drawn) | 3.99
6) CC(C)CCCC(C)[C@H]1CC[C@@H]2[C@H]3CC[C@H]4C[C@@H](CCC=C(c5cc(Cl)c(OCc6ccc(C(=O)O)cc6)c(C(=O)O)c5)c5cc(Cl)c(OCc6ccc(C(=O)O)cc6)c(C(=O)O)c5)CC[C@]4(C)[C@@H]3CC[C@]12C (stereo partly drawn) | 3.95
7) CC[C@]12C=CCN3CCC4(c5cc([C@]6(C(=O)OC)C[C@H]7CN(CCc8c6[nH]c6ccccc86)CC6CCCCC67)c(OC)cc5N(C)C4[C@@](O)(C(=O)OC)C1OC(C)=O)[C@@H]32 (stereo partly drawn) | 5.77
8) COc1ccc(/C=C/C(C(=O)O)C(=O)O)cc1 | 4.25
9) OCC1C=CC(n2cnc3c(Cl)ncnc32)CC1 (stereo not drawn) | 4.46
10) Cc1c(NC(=O)OCc2ccccc2)no[n+]1[O-] | 3.89
11) c1ccc2c(c1)cc1c3[nH]c4ccccc4c3ccn21 | 5.17
12) COC1(CC[C@H](C)COC2OC(CO)C(O)C(O)C2O)O[C@H]2C[C@H]3[C@@H]4CC=C5C[C@@H](OC6OC(CO)C(O)C(OC7OC(CO)C(O)C(O)C7O)C6OC6OC(C)C(O)C(O)C6O)CC[C@]5(C)[C@H]4CC[C@]3(C)[C@H]2[C@@H]1C (stereo partly drawn) | 5.41
13) CC(C)CN(CC(=O)Nc1cccc(Cl)c1)CC(C)C | 3.85
14) Cc1ccnc(NS(=O)(=O)c2ccc(N=Nc3cc4ccccc4c(C(=O)O)c3O)cc2)n1 | 5.00
15) Cn1cc(NC(=O)c2cc(NC(=O)c3cc(NC(=O)/C=C/C(=O)O)cn3C)cn2C)cc1C(=O)NCCC(=N)N | 4.05
16) CC(=O)OC1CC2OC2(C)C2[C@H](O)C34O[C@@]3(C)C(=O)O[C@H]4/C=C(/C)C[C@H](OC(C)=O)[C@H](OC(C)=O)[C@@]12C (stereo partly drawn) | 4.12
17) CCC/C(=N/OC(=O)N(C)C)c1ccccc1 | 3.87
18) COc1ccc(/C=C2\CN(C)C/C(=C\c3ccc(OC)c(OC)c3OC)C2=O)c(OC)c1OC | 6.48
